# System: Trichoderma virens ATCC 9645
# measurementDescription: growth yield (OD600) with compound + IPBC relative to untreated control; higher = less growth inhibition
# conditionNotes: compound concentration: 100 uM; IPBC concentration: 200 ng/ml; 40 h
Where a name gives a salt, the structure may show the parent alone. About 130 (10%) of roughly 1,300 compounds showed an effect of 50% or more. For the sample, strong results were picked, then their nearest neighbours and some compounds at random.
Lab note: compare growth yield against 90%. Equal or greater, write 1. Smaller, write -1.

Q. Is it the case that CC[N+](C)(CC)CCOC(=O)C1c2ccccc2Oc2ccccc21 [Methantheline bromide] + CCCCNC(=O)OCC#CI [3-iodo-2-propynyl butylcarbamate (IPBC)] has growth yield reaching or exceeding 90%?
A. -1

Q. Exam item: decide whether the reported growth yield for C=C(C)[C@@H]1[C@H]2OC(=O)[C@@H]1[C@]1(O)C[C@H]3O[C@]34C(=O)O[C@H]2[C@]14C [Picrotoxinin] + CCCCNC(=O)OCC#CI [3-iodo-2-propynyl butylcarbamate (IPBC)] is at least 90%.
A. 1

Q. Decide: growth yield of CC12CC3CC(C)(C1)CC(N)(C3)C2 [Memantine Hydrochloride] + CCCCNC(=O)OCC#CI [3-iodo-2-propynyl butylcarbamate (IPBC)] >= 90%?
A. 1
